Cited source for all entries: patent US5547962A

Experiment: Tissue distribution after oral administration, HPLC
Assay type: in vivo, Sprague-Dawley rats
Conditions: rat, kidney, po, 5 mg/kg; read-out: concentration ratio (tissue/plasma), kidney
Readout name: Kp
One number for each entry.

Prompt line: # input compound: Cc1c(N2C[C@@H](N)C3(CC3)C2)c(F)c(N)c2c(=O)c(C(=O)O)cn(C3CC3)c12 [Example 10] ; wanted: its Kp
Response line: 15

* * *

System: A. calcoaceticus HNR904
Assay: Antibacterial activity, MIC by agar dilution
Format: cell-based
Details: Acinetobacter calcoaceticus, clinically isolated strain, gram -
Readout name: MIC (µg/mL)
One number for each entry, in µg/mL.

Completed entries (count: 4):
Molecule	Readout name	Result number
Cc1c(N2C[C@@H](N)C(C)(C)C2)c(F)c(N)c2c(=O)c(C(=O)O)cn(C3CC3)c12 [Example 16]	MIC	6.25
Cc1c(N2CC[C@H](N)C2)c(F)c(N)c2c(=O)c(C(=O)O)cn(C3CC3)c12.Cl [Example 12]	MIC	12.5
Cc1c(N2C[C@@H](N)C3(CC3)C2)c(F)c(N)c2c(=O)c(C(=O)O)cn(C3CC3)c12 [Example 10]	MIC	1.56
Cc1c(N2C[C@@H](N)[C@@H](C)C2)c(F)c(N)c2c(=O)c(C(=O)O)cn(C3CC3)c12 (relative stereo) [Example 14]	MIC	3.13

Shift focus to the following entry.
Prompt line: # input molecule: Cc1c(N2CCC(C)(N)C2)c(F)c(N)c2c(=O)c(C(=O)O)cn(C3CC3)c12 (centres unmarked) [Example 18] ; wanted: its MIC
Response line: 12.5
